assay: In vitro bioconversion study, skin homogenates (human); type: in vitro ADME; conditions: human skin homogenate
VALUE_KIND: L-Dopa or Carbidopa Formation

{"COMPOUND": "C[C@@](Cc1ccc(O)c(OP(=O)(O)O)c1)(NN)C(=O)O [Carbidopa 3′-phosphate, Carbidopa 3′-monophosphate]", "VALUE_KIND": "L-Dopa or Carbidopa Formation", "REPORTED_RESULT": "Yes"}
{"COMPOUND": "C[C@@](Cc1ccc(OP(=O)(O)O)c(OP(=O)(O)O)c1)(NN)C(=O)O [Carbidopa 3′,4′-diphosphate]", "VALUE_KIND": "L-Dopa or Carbidopa Formation", "REPORTED_RESULT": "No"}
{"COMPOUND": "N[C@@H](Cc1ccc(OP(=O)(O)O)c(OP(=O)(O)O)c1)C(=O)O [L-dopa 3′,4′-diphosphate]", "VALUE_KIND": "L-Dopa or Carbidopa Formation", "REPORTED_RESULT": "No"}
{"COMPOUND": "C[C@@](Cc1ccc(OP(=O)(O)O)c(O)c1)(NN)C(=O)O [Carbidopa 4′-phosphate, Carbidopa 4′-monophosphate]", "VALUE_KIND": "L-Dopa or Carbidopa Formation", "REPORTED_RESULT": "Yes"}
